test: Metabolic (microsomal) stability assay, human liver microsomes (HLM); assay type: in vitro ADME; conditions: 1 μM test compound, predicted clearance as percent of liver blood flow
Item-by-item account of HLM QH
# number only, unit % dropped from output

Answered examples (3):
CHEM_SMILES: C[C@H](Oc1nc(-c2noc3c2CCC[C@@]32CCCc3sc(N)c(C#N)c32)nc2c1cnn2[C@@H]1CCOC1)[C@@H]1CCCN1C
UNITS_OF_MEASURE: %
HLM QH: 40

CHEM_SMILES: CO[C@@H]1C[C@@H]([C@H](C)Oc2nc(-c3noc4c3CCC[C@@]43CCCc4sc(N)c(C#N)c43)nc3c2CN(C2COC2)C[C@]32CCOC2)N(C)C1
UNITS_OF_MEASURE: %
HLM QH: 59

CHEM_SMILES: CO[C@@H]1C[C@@H]([C@H](C)Oc2nc(-c3onc4c3CCC[C@@]43CCCc4sc(N)c(C#N)c43)nc3c2CN(C2COC2)C[C@]32CCOC2)N(C)C1
UNITS_OF_MEASURE: %
HLM QH: 52

// query HLM QH value for entry C[C@H](Oc1nc(-c2onc3c2CCC[C@@]32CCCc3sc(N)c(C#N)c32)nc2c1CN(C1COC1)C[C@]21CCOC1)[C@@H]1CC[C@H](C)N1C 52

---

molecular target: KRAS (G12V)::CRAF protein::protein interaction (Homo sapiens (Human), UniProt P01116, C118S/G12V); experiment: KRAS TR-FRET assay (KRAS G12V::CRAF, GTP)
Sequence (P01116 other isoform, or with tags, fused parts or gaps G12V/C118S): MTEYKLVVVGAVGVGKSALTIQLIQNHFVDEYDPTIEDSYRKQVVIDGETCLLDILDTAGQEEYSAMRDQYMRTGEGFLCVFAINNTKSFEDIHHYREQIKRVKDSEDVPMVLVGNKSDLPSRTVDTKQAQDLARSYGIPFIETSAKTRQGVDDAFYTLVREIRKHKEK
Catalogue of pIC50 values
Note on units: pIC50 is unitless, being -log10 of a concentration expressed in mol/L.

Some entries whose results are on file:
MOLECULE: C[C@H](Oc1nc(-c2onc3c2CCC[C@@]32CCCc3sc(N)c(C#N)c32)nc2c1n(C)c(=O)n2[C@H]1CCOC1)[C@@H]1CCCN1C [I-9]
QUANTITY_KIND: pIC50
RECORDED_VALUE: 6.70
--
MOLECULE: C[C@H](Oc1nc(-c2onc3c2CCC[C@@]32CCCc3sc(N)c(C#N)c32)nc2c1n(C)c(=O)n2[C@@H]1CCOC1)C12CCCN1CCC2 [I-25]
QUANTITY_KIND: pIC50
RECORDED_VALUE: 7.59
--
MOLECULE: C[C@H](Oc1nc(-c2onc3c2CCC[C@@]32CCCc3sc(N)c(C#N)c32)nc2c1n(C)c(=O)n2[C@@H]1CCOC1)[C@@H]1C[C@H](F)CN1C [I-27]
QUANTITY_KIND: pIC50
RECORDED_VALUE: 6.71
--
MOLECULE: C[C@H](Oc1nc(-c2onc3c2CCC[C@@]32CCCc3sc(N)c(C#N)c32)nc2c1n(C)c(=O)n2[C@@H]1CCOC1)[C@@H]1CCCN1C [I-20]
QUANTITY_KIND: pIC50
RECORDED_VALUE: 7.68
--
MOLECULE: C[C@H](Oc1nc(-c2onc3c2CCC[C@@]32CCCc3sc(N)c(C#N)c32)nc2c1n(C)c(=O)n2[C@@H]1CCOC1)[C@@H]1C[C@@H]2C[C@@H]2N1C [I-28]
QUANTITY_KIND: pIC50
RECORDED_VALUE: 6.62
--
MOLECULE: CC(C)n1c(=O)n([C@@H]2CCOC2)c2nc(-c3onc4c3CCC[C@@]43CCCc4sc(N)c(C#N)c43)nc(O[C@@H](C)[C@@H]3CCCN3C)c21 [I-32]
QUANTITY_KIND: pIC50
RECORDED_VALUE: 6.72
--
MOLECULE: C[C@H](Oc1nc(-c2onc3c2CCC[C@@]32CCCc3sc(N)c(C#N)c32)nc2c1cnn2[C@@H]1CCOC1)[C@@H]1CCCN1C [I-43]
QUANTITY_KIND: pIC50
RECORDED_VALUE: 6.83
--
MOLECULE: C[C@H](Oc1nc(-c2onc3c2CCC[C@@]32CCCc3sc(N)c(C#N)c32)nc2c1n(C)c(=O)n2[C@H]1CCCOC1)[C@@H]1CCCN1C [I-11]
QUANTITY_KIND: pIC50
RECORDED_VALUE: 6.50
--
MOLECULE: CO[C@H]1C[C@@H]([C@H](C)Oc2nc(-c3onc4c3CCC[C@@]43CCCc4sc(N)c(C#N)c43)nc3c2n(C)c(=O)n3[C@@H]2CCOC2)N(C)C1 [I-2]
QUANTITY_KIND: pIC50
RECORDED_VALUE: 6.74
--
MOLECULE: CCn1c(=O)n([C@@H]2CCCOC2)c2nc(-c3onc4c3CCC[C@@]43CCCc4sc(N)c(C#N)c43)nc(O[C@@H](C)[C@@H]3CCCN3C)c21 [I-30]
QUANTITY_KIND: pIC50
RECORDED_VALUE: 6.99

Any idea what pIC50 was measured for C[C@H](Oc1nc(-c2onc3c2CCC[C@@]32CCCc3sc(N)c(C#N)c32)nc2c1n(C)c(=O)n2[C@@H]1CCOC1)[C@@H]1[C@@H](F)CCN1C [I-5] ? 6.58

The values you see were collected from patent US20250019385A1.
